Where these numbers come from: the NIST ThermoML archive (doi:10.1021/je9004992)

Consider the following compounds and their measured molar heat capacity at constant pressure readings.
experiment: molar heat capacity at constant pressure; settings: 303.15 K; 4000 kPa; Liquid; Small sample (50 mg) DSC
The figure you give is taken to be in J/K/mol; do not add the unit.

CCCCCCn1cc[n+](C)c1.F[B-](F)(F)F [1-hexyl-3-methylimidazolium tetrafluoroborate] ... 432.43
CCn1cc[n+](C)c1.F[B-](F)(F)F [1-ethyl-3-methylimidazolium tetrafluoroborate] ... 306.64
CCCCn1cc[n+](C)c1.F[B-](F)(F)F [1-butyl-3-methylimidazolium tetrafluoroborate] ... 368.33

Please turn your attention to the following entry.
Query: Entry under review: CCCCCCCC[n+]1ccn(C)c1.F[B-](F)(F)F [1-methyl-3-octylimidazolium tetrafluoroborate] . Reported molar heat capacity at constant pressure?
Result: 503.5

---

experiment: molar heat capacity at constant pressure; details: 293.15 K; 2000 kPa; Liquid; Small sample (50 mg) DSC
readout: molar heat capacity at constant pressure (J/K/mol)
Express your answer in J/K/mol, writing the number without its unit.

CCCCCCn1cc[n+](C)c1.F[B-](F)(F)F [1-hexyl-3-methylimidazolium tetrafluoroborate] ... 427.38

Query: # lookup: molar heat capacity at constant pressure of CCCCn1cc[n+](C)c1.F[B-](F)(F)F [1-butyl-3-methylimidazolium tetrafluoroborate]
Result: 364.17

Query: What measured molar heat capacity at constant pressure goes with CCCCCCCC[n+]1ccn(C)c1.F[B-](F)(F)F [1-methyl-3-octylimidazolium tetrafluoroborate] ?
Result: 496.79

Query: So what's the measured molar heat capacity at constant pressure for this one? CCn1cc[n+](C)c1.F[B-](F)(F)F [1-ethyl-3-methylimidazolium tetrafluoroborate]
Result: 303.26

---

assay: molar heat capacity at constant pressure; settings: 298.15 K; 4000 kPa; Liquid; Small sample (50 mg) DSC
readout: molar heat capacity at constant pressure (J/K/mol)
Could you give me the number in J/K/mol? Just the number is fine.

CCCCCCCC[n+]1ccn(C)c1.F[B-](F)(F)F [1-methyl-3-octylimidazolium tetrafluoroborate] ... 500.25

Query: Request the reported molar heat capacity at constant pressure associated with CCn1cc[n+](C)c1.F[B-](F)(F)F [1-ethyl-3-methylimidazolium tetrafluoroborate]
Result: 304.93

Query: For the compound CCCCn1cc[n+](C)c1.F[B-](F)(F)F [1-butyl-3-methylimidazolium tetrafluoroborate] , what molar heat capacity at constant pressure is on record?
Result: 366.23

Query: // query molar heat capacity at constant pressure value for entry CCCCCCn1cc[n+](C)c1.F[B-](F)(F)F [1-hexyl-3-methylimidazolium tetrafluoroborate]
Result: 429.87

---

assay: molar heat capacity at constant pressure; details: 288.15 K; 8000 kPa; Liquid; Small sample (50 mg) DSC
± gives the expanded uncertainty stated by the source.
readout: molar heat capacity at constant pressure

CCCCn1cc[n+](C)c1.F[B-](F)(F)F [1-butyl-3-methylimidazolium tetrafluoroborate] ... 362.27 ± 5.6 J/K/mol
CCn1cc[n+](C)c1.F[B-](F)(F)F [1-ethyl-3-methylimidazolium tetrafluoroborate] ... 301.79 ± 4.7 J/K/mol
CCCCCCn1cc[n+](C)c1.F[B-](F)(F)F [1-hexyl-3-methylimidazolium tetrafluoroborate] ... 425.17 ± 6.6 J/K/mol

Query: Look up molar heat capacity at constant pressure for this molecule: CCCCCCCC[n+]1ccn(C)c1.F[B-](F)(F)F [1-methyl-3-octylimidazolium tetrafluoroborate]
Result: 493.11 ± 7.6 J/K/mol

---

test: molar heat capacity at constant pressure; conditions: 318.15 K; 60000 kPa; Liquid; Small sample (50 mg) DSC
Numbers after ± are expanded uncertainties.
readout: molar heat capacity at constant pressure
Give me the value, and tack the unit on after it.

# annotated cases, reported molar heat capacity at constant pressure shown
CCCCn1cc[n+](C)c1.F[B-](F)(F)F [1-butyl-3-methylimidazolium tetrafluoroborate] ... 375.58 ± 5.8 J/K/mol
CCn1cc[n+](C)c1.F[B-](F)(F)F [1-ethyl-3-methylimidazolium tetrafluoroborate] ... 313.1 ± 4.8 J/K/mol
CCCCCCCC[n+]1ccn(C)c1.F[B-](F)(F)F [1-methyl-3-octylimidazolium tetrafluoroborate] ... 511.97 ± 7.9 J/K/mol

For the next question, use this compound.
Query: Field request: molar heat capacity at constant pressure | item: CCCCCCn1cc[n+](C)c1.F[B-](F)(F)F [1-hexyl-3-methylimidazolium tetrafluoroborate]
Result: 441.58 ± 6.8 J/K/mol

---

experiment: molar heat capacity at constant pressure; details: 288.15 K; 60000 kPa; Liquid; Small sample (50 mg) DSC
We begin with a simple list: items and their reported molar heat capacity at constant pressure.
Give the quantity in J/K/mol, number only.

Guide cases for molar heat capacity at constant pressure, answers given:
CCCCn1cc[n+](C)c1.F[B-](F)(F)F [1-butyl-3-methylimidazolium tetrafluoroborate] ... 362.87
CCn1cc[n+](C)c1.F[B-](F)(F)F [1-ethyl-3-methylimidazolium tetrafluoroborate] ... 302.54
CCCCCCn1cc[n+](C)c1.F[B-](F)(F)F [1-hexyl-3-methylimidazolium tetrafluoroborate] ... 426.26

Next compound, molar heat capacity at constant pressure to be filled in.
Query: Which molar heat capacity at constant pressure value is on record for CCCCCCCC[n+]1ccn(C)c1.F[B-](F)(F)F [1-methyl-3-octylimidazolium tetrafluoroborate] ?
Result: 493.08

---

experiment: molar heat capacity at constant pressure; settings: 323.15 K; 4000 kPa; Liquid; Small sample (50 mg) DSC
Entries annotated with measured molar heat capacity at constant pressure
Quick note: give the figure in J/K/mol, leave out the unit.

Observe how each entry below is paired with its result.
CCCCCCCC[n+]1ccn(C)c1.F[B-](F)(F)F [1-methyl-3-octylimidazolium tetrafluoroborate] ... 514.41
CCn1cc[n+](C)c1.F[B-](F)(F)F [1-ethyl-3-methylimidazolium tetrafluoroborate] ... 314.24
CCCCn1cc[n+](C)c1.F[B-](F)(F)F [1-butyl-3-methylimidazolium tetrafluoroborate] ... 377.34

Below: the item to evaluate.
Query: I'd like to know its molar heat capacity at constant pressure. The compound in question is CCCCCCn1cc[n+](C)c1.F[B-](F)(F)F [1-hexyl-3-methylimidazolium tetrafluoroborate]
Result: 443.74

---

assay: molar heat capacity at constant pressure; details: 288.15 K; 20000 kPa; Liquid; Small sample (50 mg) DSC
readout: molar heat capacity at constant pressure (J/K/mol)
Unit J/K/mol implied. Number only.

Solved entries:
CCCCn1cc[n+](C)c1.F[B-](F)(F)F [1-butyl-3-methylimidazolium tetrafluoroborate] ... 362.4
CCCCCCCC[n+]1ccn(C)c1.F[B-](F)(F)F [1-methyl-3-octylimidazolium tetrafluoroborate] ... 493.11
CCCCCCn1cc[n+](C)c1.F[B-](F)(F)F [1-hexyl-3-methylimidazolium tetrafluoroborate] ... 425.42

Consider the record given below.
Query: Item under review: CCn1cc[n+](C)c1.F[B-](F)(F)F [1-ethyl-3-methylimidazolium tetrafluoroborate] . Reported molar heat capacity at constant pressure?
Result: 301.96

---

assay: molar heat capacity at constant pressure; details: 318.15 K; 12000 kPa; Liquid; Small sample (50 mg) DSC
# molar heat capacity at constant pressure listing for each entry below
A number alone suffices; assume J/K/mol.

Examples from the recorded data:
CCCCn1cc[n+](C)c1.F[B-](F)(F)F [1-butyl-3-methylimidazolium tetrafluoroborate] ... 375.08
CCCCCCn1cc[n+](C)c1.F[B-](F)(F)F [1-hexyl-3-methylimidazolium tetrafluoroborate] ... 440.87
CCn1cc[n+](C)c1.F[B-](F)(F)F [1-ethyl-3-methylimidazolium tetrafluoroborate] ... 312.35

API: the following record is the query input.
Query: Could you share which molar heat capacity at constant pressure value was measured for CCCCCCCC[n+]1ccn(C)c1.F[B-](F)(F)F [1-methyl-3-octylimidazolium tetrafluoroborate] ?
Result: 511.99

---

test: molar heat capacity at constant pressure; settings: 288.15 K; 12000 kPa; Liquid; Small sample (50 mg) DSC
Documented molar heat capacity at constant pressure across a set of compounds
Express it in J/K/mol; write the number only.

Use these answered entries as a reference point.
CCCCn1cc[n+](C)c1.F[B-](F)(F)F [1-butyl-3-methylimidazolium tetrafluoroborate] ... 362.31
CCCCCCn1cc[n+](C)c1.F[B-](F)(F)F [1-hexyl-3-methylimidazolium tetrafluoroborate] ... 425.25
CCCCCCCC[n+]1ccn(C)c1.F[B-](F)(F)F [1-methyl-3-octylimidazolium tetrafluoroborate] ... 493.11

Query: GET /values?readout=molar heat capacity at constant pressure&item= CCn1cc[n+](C)c1.F[B-](F)(F)F [1-ethyl-3-methylimidazolium tetrafluoroborate]
Result: 301.85

---

Reported molar heat capacity at constant pressure is given for each of the following molecules.
experiment: molar heat capacity at constant pressure; conditions: 308.15 K; 14000 kPa; Liquid; Small sample (50 mg) DSC
± gives the expanded uncertainty stated by the source.

Use these answered entries as a reference point.
CCCCn1cc[n+](C)c1.F[B-](F)(F)F [1-butyl-3-methylimidazolium tetrafluoroborate] ... 370.57 ± 5.7 J/K/mol
CCn1cc[n+](C)c1.F[B-](F)(F)F [1-ethyl-3-methylimidazolium tetrafluoroborate] ... 308.59 ± 4.8 J/K/mol
CCCCCCn1cc[n+](C)c1.F[B-](F)(F)F [1-hexyl-3-methylimidazolium tetrafluoroborate] ... 435.27 ± 6.7 J/K/mol

In the following, a different molecule is considered.
Query: Which molar heat capacity at constant pressure value is on record for CCCCCCCC[n+]1ccn(C)c1.F[B-](F)(F)F [1-methyl-3-octylimidazolium tetrafluoroborate] ?
Result: 506.52 ± 7.8 J/K/mol
